- subject.of.test: Nucleoprotein (Lymphocytic choriomeningitis virus (strain Armstrong))
- experimental.protocol: qHTS for Inhibitors of the Functional Ribonucleoprotein Complex (vRNP) of Lymphocytic Choriomeningitis Arenaviruses (LCMV): LCMV Primary Screen - GLuc reporter signal (AID 1347086); further: nearly all actives have a fitted effect of over 70% in size
- condition.context: LCMV minigenome vRNP cell assay, Gaussia luciferase reporter; series mostly up to 57.5 µM
Records with an inconclusive call do not appear. Active and inactive are the calls of the source. The call rests on the fitted dose curve.
Labels: 1.0 (active), 0.0 (inactive)

molecule: CC(=O)OCC(=O)[C@H]1CC[C@H]2[C@@H]3CCC4=CC(=O)CC[C@]4(C)[C@H]3CC[C@]12C
cat: 0.0

molecule: COC1CC(=C(c2cccs2)c2cccs2)C[N+](C)(C)C1 (stereo not drawn)
cat: 0.0

molecule: O=C1c2ccccc2CCc2ccccc21
cat: 0.0

molecule: CN1C(=O)NC(=O)C(C)(C2=CCCCC2)C1=O (stereo not drawn)
cat: 0.0

molecule: CC[N+]1(CC)CCC(OC(=O)C(O)(c2ccccc2)c2ccccc2)C1 (stereo not drawn)
cat: 0.0

molecule: COc1cccc2c1C(=O)c1c(O)c3c(c(O)c1C2=O)C[C@@](O)(C(=O)CO)C[C@@H]3O[C@H]1C[C@H](N)[C@@H](O)[C@H](C)O1
cat: 1.0

molecule: CC(COc1ccccc1)NN (stereo not drawn)
cat: 0.0

molecule: Cc1oc(=O)oc1COC(=O)[C@@H]1N2C(=O)[C@@H](NC(=O)[C@H](N)c3ccccc3)[C@H]2SC1(C)C
cat: 0.0

molecule: CCOc1cc(OCC)c(C(=O)CCC(=O)O)cc1OCC
cat: 0.0

molecule: CC(C)(C)CC(C)(C)c1ccc(O)c(-n2nc3ccccc3n2)c1
cat: 0.0

molecule: CC(=O)Nc1ccc(C(=O)O)cc1
cat: 0.0

molecule: CCC(Cc1c(I)cc(I)c(N)c1I)C(=O)O (stereo not drawn)
cat: 0.0

molecule: O=C(O)CNC(=O)c1ccccc1
cat: 0.0

molecule: Nc1ccc(S(=O)(=O)Nc2ccccn2)cc1
cat: 0.0

molecule: Cc1cnc(NS(=O)(=O)c2ccc(N)cc2)nc1
cat: 0.0

molecule: NC(=O)c1ccccc1O
cat: 0.0

molecule: N[C@@H](COP(=O)(O)O)C(=O)O
cat: 0.0

molecule: CCCC(=O)O[C@]1(C(=O)CO)CC[C@H]2[C@@H]3CCC4=CC(=O)CC[C@]4(C)[C@H]3[C@@H](O)C[C@@]21C
cat: 0.0

molecule: O=c1[nH]cnc2[nH]ncc12
cat: 0.0

molecule: CC(C)c1cccc(C(C)C)c1O
cat: 0.0

molecule: ClCCN1CCCC1
cat: 0.0

molecule: O=c1cc[nH]c(=S)[nH]1
cat: 0.0

molecule: CCOc1cc(CC(=O)N[C@@H](CC(C)C)c2ccccc2N2CCCCC2)ccc1C(=O)O
cat: 0.0

molecule: Cc1cn([C@@H]2O[C@H](CO)[C@@H](O)[C@H]2F)c(=O)[nH]c1=O
cat: 0.0

molecule: Nc1ccccc1C(=O)O
cat: 0.0

molecule: COc1ccc(CCN(C)CCCN2CCc3cc(OC)c(OC)cc3CC2=O)cc1OC
cat: 0.0

molecule: CNC[C@H](O)[C@@H](O)[C@H](O)[C@H](O)CO
cat: 0.0

molecule: Cc1cccc(C)c1NC(=O)c1cc(S(N)(=O)=O)c(Cl)cc1O
cat: 0.0

molecule: CC(C)(CO)[C@@H](O)C(=O)NCCCO
cat: 0.0

molecule: CN1CC[C@]23c4c5ccc(O)c4O[C@H]2[C@@H](O)CC[C@H]3[C@H]1C5
cat: 0.0

molecule: COc1cccc([C@@]2(O)CCCC[C@@H]2CN(C)C)c1
cat: 0.0

molecule: O=C(O)Cc1cn(-c2ccccc2)nc1-c1ccc(Cl)cc1
cat: 0.0

molecule: CC(=O)[C@H]1CC[C@H]2[C@@H]3C[C@H](C)C4=CC(=O)CC[C@]4(C)[C@H]3[C@@H](O)C[C@]12C
cat: 0.0

molecule: O=S(=O)(O)c1ccc2nc(-c3ccccc3)[nH]c2c1
cat: 0.0

molecule: CCOC(=O)c1ccc(OCCN2C[C@H](O)[C@@H](O)[C@H](O)[C@H]2CO)cc1
cat: 0.0

molecule: CC(C)NCC(O)c1ccc(NS(C)(=O)=O)cc1 (stereo not drawn)
cat: 0.0

molecule: Clc1ccc2nsnc2c1NC1=NCCN1
cat: 0.0

molecule: CC(=O)Oc1ccc(C)cc1
cat: 0.0

molecule: O=C1CN(/N=C/c2ccc([N+](=O)[O-])o2)C(=O)N1
cat: 0.0

molecule: COc1ccnc(CS(=O)c2nc3ccc(OC(F)F)cc3[nH]2)c1OC (stereo not drawn)
cat: 0.0

molecule: NC(CS)C(=O)O (stereo not drawn)
cat: 0.0

molecule: CC(=O)NC(=O)c1ccccc1O
cat: 0.0

molecule: C[C@H](N)C(=O)c1ccccc1
cat: 0.0

molecule: CCn1cc(C(=O)O)c(=O)c2cnc(N3CCNCC3)nc21
cat: 0.0

molecule: CCOC(=O)C1=C[C@@H](OC(CC)CC)[C@H](NC(C)=O)[C@@H](N)C1
cat: 0.0

molecule: NC(Cc1ccc(Cl)cc1)C(=O)O (stereo not drawn)
cat: 0.0

molecule: CN(c1nccc(=O)[nH]1)C1CCN(c2nc3ccccc3n2Cc2ccc(F)cc2)CC1
cat: 0.0

molecule: CC(CN(C)C)C(C)(O)Cc1ccc(Cl)cc1 (stereo not drawn)
cat: 0.0

Values compiled from PubChem BioAssay (NCATS).
